target: CYP3A4 versus CYP3A5 (Homo sapiens (Human)); assay: in vitro; conditions: probe midazolam
Sequence (P08684 whole entry): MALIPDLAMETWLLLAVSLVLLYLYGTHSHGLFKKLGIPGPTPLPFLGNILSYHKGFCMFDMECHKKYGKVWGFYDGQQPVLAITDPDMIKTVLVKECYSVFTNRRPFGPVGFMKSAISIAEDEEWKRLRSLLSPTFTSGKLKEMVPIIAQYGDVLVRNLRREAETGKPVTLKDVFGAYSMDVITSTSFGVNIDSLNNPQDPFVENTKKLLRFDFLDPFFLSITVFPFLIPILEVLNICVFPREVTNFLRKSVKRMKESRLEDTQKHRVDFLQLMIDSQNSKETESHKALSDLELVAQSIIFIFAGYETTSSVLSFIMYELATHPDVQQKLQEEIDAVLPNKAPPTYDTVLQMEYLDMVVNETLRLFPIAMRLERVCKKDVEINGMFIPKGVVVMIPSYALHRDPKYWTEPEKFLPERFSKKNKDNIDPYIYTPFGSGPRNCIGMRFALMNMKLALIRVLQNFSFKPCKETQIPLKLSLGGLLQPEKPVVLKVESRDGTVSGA
Metric: selectivity ratio

In one line, give reported selectivity ratio of the entry `CCc1ccc(-c2c(-c3nn(C)c4ncnc(N5CC[C@H](N6CCCCC6)C5)c34)cnn2C)cc1` .
87
